Source listed as PubChem BioAssay AID436.

- systemName: Ubiquitin carboxyl-terminal hydrolase BAP1 (Homo sapiens) (UniProt Q92560)
- Sequence (Q92560 whole entry, looked up): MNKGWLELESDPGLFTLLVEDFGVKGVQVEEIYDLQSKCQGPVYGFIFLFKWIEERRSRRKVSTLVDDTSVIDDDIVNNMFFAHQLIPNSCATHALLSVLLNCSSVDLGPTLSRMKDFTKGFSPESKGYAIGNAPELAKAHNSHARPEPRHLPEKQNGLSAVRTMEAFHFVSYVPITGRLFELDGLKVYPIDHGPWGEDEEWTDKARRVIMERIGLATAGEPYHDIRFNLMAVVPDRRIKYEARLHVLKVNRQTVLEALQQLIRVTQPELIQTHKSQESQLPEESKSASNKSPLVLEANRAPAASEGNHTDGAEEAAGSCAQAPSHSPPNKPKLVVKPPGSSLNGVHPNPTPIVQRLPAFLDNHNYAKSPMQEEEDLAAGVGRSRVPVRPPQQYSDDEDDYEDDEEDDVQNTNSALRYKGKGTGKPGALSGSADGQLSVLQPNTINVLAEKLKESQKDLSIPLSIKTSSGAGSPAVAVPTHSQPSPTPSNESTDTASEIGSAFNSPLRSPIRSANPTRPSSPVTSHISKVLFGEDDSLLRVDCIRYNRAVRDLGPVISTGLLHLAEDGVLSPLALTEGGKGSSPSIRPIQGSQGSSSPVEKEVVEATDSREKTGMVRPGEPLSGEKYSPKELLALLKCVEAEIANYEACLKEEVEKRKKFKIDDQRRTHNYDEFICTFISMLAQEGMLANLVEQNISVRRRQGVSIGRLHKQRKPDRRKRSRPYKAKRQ
- testProtocol: inhibitors of BAP1 deubiquitinase, primary screen, biochemical, Ub-AMC fluorescence, kinetic (AID 436);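 further: 100% = DMSO wells rate and 0% = substrate alone blank rate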
- testSettings: recombinant BAP1, Ub-AMC hydrolysis fluorescence kinetic; at 20 µM; stronger effect = lower value
Out of some 72,000 compounds screened, about 350 (0.49%) were called active. Many of the other results were omitted from the sample, so actives are more common in it than they were.
For each record, check the reported activity remaining (% of control): if it is below 90% write Yes, else write No.

# example entries with known answers
| molecule | group |
| --- | --- |
| COc1ccc(CCNC(=O)c2cccc([N+](=O)[O-])c2C)cc1 | Yes |
| Cc1ccccc1C(=O)Nc1ccc(C(=O)Nc2cccc(C(F)(F)F)c2)cc1 | No |
| COc1ccc(-c2csc(NC(=O)c3ccc(S(=O)(=O)N4CC(C)CC(C)C4)cc3)n2)cc1C (centres undefined) | No |
| Cc1cccc(C)c1OCC(O)CN1CCCCC1 (centres undefined) | Yes |

Q. Bench note: check whether Cc1nnc2sc(-c3ccco3)nn12 shows activity remaining (% of control) below 90%
A. Yes

Q. Is activity remaining (% of control) of O=C(Nc1ccc(-c2nc3ccccc3o2)cc1)c1ccc(S(=O)(=O)N2CCCCC2)cc1 strictly below 90%?
A. No

Q. Field: below-cutoff. Rule: recorded activity remaining (% of control) strictly less than 90%. Subject: Cc1ccc(C=Cc2ccncc2)cc1
A. No

Q. Field: below-cutoff. Rule: recorded activity remaining (% of control) strictly less than 90%. Subject: C=CCn1c2ccccc2c2nnc(SC(CC)C(=O)Nc3nc(C)c(C(=O)OCC)s3)nc21 (centres undefined)
A. Yes

Q. # check: activity remaining (% of control) < 90% for CCCOC(=O)c1ccc(NC(=O)c2ccc(OC)cc2)cc1
A. No

###

- systemName: Ubiquitin carboxyl-terminal hydrolase BAP1 (Homo sapiens) (UniProt Q92560)
- testProtocol: inhibitors of BAP1 deubiquitinase, primary screen, biochemical, Ub-AMC fluorescence, kinetic (AID 436);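 further: 100% = DMSO wells rate and 0% = substrate alone blank rate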
- testSettings: recombinant BAP1, Ub-AMC hydrolysis fluorescence kinetic; at 20 µM; stronger effect = lower value
The campaign covered roughly 72,000 compounds. About 350 (0.49%) were called active. The entries come from a sample that favours actives as a whole.
A collection of compounds and their measured activity remaining (% of control)

| compound | result |
| --- | --- |
| COc1cc(C2CC(=O)Nc3c2cc(Br)c2ccccc32)cc(Br)c1OC (stereo unspecified) | 57.5% (inactive) |
| CCOC(=O)c1sc(NC(=O)c2cc(Cl)ccc2[N+](=O)[O-])nc1C | 56.8% (inactive) |

Entry COc1cc(C(=O)Nc2ccc(Cl)cc2[N+](=O)[O-])cc(OC)c1OC — recorded activity remaining (% of control) = 87.7% (inactive)

In plain terms, O=c1c2ccccc2nc(CSc2nnnn2-c2ccccc2)n1-c1ccccc1 has a documented activity remaining (% of control) of 37.5% (active)

Input COc1ccc2cc(C(=O)Nc3cccc(C(F)(F)F)c3)c(=N)oc2c1 . Output activity remaining (% of control): 72.3% (inactive)

// recorded activity remaining (% of control) for N#CCSc1nc2ccccc2c(=O)n1-c1ccccc1 : 109% (inactive)
